test system: GRK1; details: concentration: 1 μM, replicates: in singlicate; n = 1;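 also: KINOMEscan kinase panel screen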
%Inh for assorted compounds
Give the quantity in %, number only.

// worked examples, %Inh included
1) COc1ccccc1CNC(=O)c1cc(C(=O)c2ccccc2C)c[nH]1 0
2) O=C(Nc1n[nH]c2nc(-c3nccs3)c(Br)cc12)C1CC1 1
3) Clc1cc(Cl)cc(Nc2ccnc(Nc3cc(Cl)cc(Cl)c3)n2)c1 100
4) Cc1cccc(-c2nc(-c3ccc(S(C)(=O)=O)cc3)sc2-c2ccnc(NCCc3ccccc3)c2)c1 11

Then this compound:
Task item: Which %Inh is reported for this compound? `CCn1c(-c2cccnc2O)nc2cnccc21`
Reply: 0
